These data points were gathered from paper PMC3218832.

- TGT: RELB subunit;p50 subunit (Homo sapiens;Homo sapiens, UniProt Q01201;P19838 120-401;7-356)
- ASSAY PROTOCOL: protein binding microarray; high values mean tight binding
- RECORDED CONDITIONS: dsDNA, one strand shown
Provide the recorded binding signal for the entries that follow.
# unit: z-score | format: bare number

Request: Give binding signal for the following sequence: GGGTTCCTCCT
Result: -0.937

Request: Answer with the recorded binding signal of AGGGGAGTCCT only.
Result: 0.907

Request: Indicate its recorded binding signal; the sequence in question is CAGGTCGCCCC
Result: -0.18

Request: Note binding signal for the sequence shown: AAGTGATTCCT
Result: -0.843

Request: Fill in binding signal for record AGGGGGGCCCT
Result: 0.542

Request: Recall and state the measured binding signal for AGAGGTCTCCC .
Result: -0.0782

Request: Return binding signal for the following sequence: AAGGTTATCCC
Result: -0.236

Request: Retrieve binding signal measured for AGATACCCCCT and print it.
Result: 1.38

Request: Give the reported value of binding signal for this record: AAGATCGTCCC
Result: 0.309

Request: In one line, give reported binding signal of the entry CAGGTGTTCCC .
Result: -0.0984

====

- TGT: RELB subunit;p50 subunit (Homo sapiens;Homo sapiens, UniProt Q01201;P19838 120-401;7-356)
- ASSAY PROTOCOL: protein binding microarray; high values mean tight binding
- RECORDED CONDITIONS: dsDNA, one strand shown
PROPERTY: binding signal
Kindly report the value followed by its unit.

Request: Using the record for AGGTTCATCCC , state its measured binding signal.
Result: -0.476 z-score

Request: Fill in binding signal for record CAATGACTCCT
Result: -1.12 z-score

Request: Respond only with binding signal recorded for AGAATGTTCCT
Result: -0.963 z-score

Request: Please report binding signal for the following sequence: AAAGTGGTCCC
Result: 0.24 z-score

Request: Assign binding signal to the following record: AGAAAAGCCCC
Result: 1.77 z-score

Request: Note down binding signal recorded for CGATAATTCCC
Result: 0.871 z-score

Request: Retrieve binding signal measured for AGAAGGGTCCC and print it.
Result: -0.00663 z-score

Request: For the sequence GGGGGGCCCCT , give its measured binding signal value.
Result: 1.23 z-score

Request: Give reported binding signal value for AAATGAGTCCT
Result: -0.889 z-score

Request: State, in one line, measured binding signal of AAGATGCCCCC
Result: 0.97 z-score

====

- TGT: RELA (p65) subunit of heterodimer;p50 subunit (Homo sapiens;Homo sapiens, UniProt Q04206;P19838 1-307;7-356)
- Sequence (Q04206 1-307, chain 1 of 2): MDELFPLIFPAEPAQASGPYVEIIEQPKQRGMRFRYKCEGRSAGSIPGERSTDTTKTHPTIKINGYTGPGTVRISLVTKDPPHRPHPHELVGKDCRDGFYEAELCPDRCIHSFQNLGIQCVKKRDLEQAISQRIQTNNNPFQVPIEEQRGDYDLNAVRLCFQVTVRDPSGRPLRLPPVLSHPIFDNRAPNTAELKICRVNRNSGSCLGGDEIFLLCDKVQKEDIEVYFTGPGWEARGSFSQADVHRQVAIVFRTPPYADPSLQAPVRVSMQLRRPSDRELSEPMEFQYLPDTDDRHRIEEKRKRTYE
- Sequence (P19838 7-356, chain 2 of 2): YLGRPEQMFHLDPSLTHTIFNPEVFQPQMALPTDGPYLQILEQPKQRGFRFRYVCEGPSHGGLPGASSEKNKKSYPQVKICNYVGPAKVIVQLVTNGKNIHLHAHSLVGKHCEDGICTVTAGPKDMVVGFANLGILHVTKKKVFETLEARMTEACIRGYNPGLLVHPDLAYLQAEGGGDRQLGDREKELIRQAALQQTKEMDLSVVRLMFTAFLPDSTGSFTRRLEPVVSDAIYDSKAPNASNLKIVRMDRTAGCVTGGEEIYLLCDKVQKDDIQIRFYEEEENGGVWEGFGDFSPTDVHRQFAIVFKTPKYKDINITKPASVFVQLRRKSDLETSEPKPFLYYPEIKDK
- ASSAY PROTOCOL: protein binding microarray; high values mean tight binding
- RECORDED CONDITIONS: dsDNA, one strand shown
PROPERTY: binding signal (z-score)
Expressed in z-score, but write only the number.

Request: Given GGGATAGTCCC , respond with its binding signal.
Result: 1.82

Request: For the sequence AGATGCGCCCT , give its measured binding signal value.
Result: -0.768

Request: Could you please provide reported binding signal for CAATATTTCCC ? Thanks!
Result: 1.27

Request: Provide only the value of recorded binding signal for GGGTTGACCCT
Result: -0.407

Request: In one line, give reported binding signal of the entry CGGGAGATCCT .
Result: -0.217

Request: Indicate the recorded binding signal value for this sequence: GAATGCCTCCT
Result: -0.691

Request: Input AGAGGAATCCC , output reported binding signal.
Result: 0.188

Request: Supply measured binding signal of GGGTGTTCCCC in your reply.
Result: 2.14

Request: Respond only with binding signal recorded for CAGTAAATCCT
Result: -0.903

Request: Supply binding signal value. Item: AGGAAAGTCCC
Result: 2.16

====

- TGT: RELB subunit;p52 subunit (Homo sapiens;Homo sapiens, UniProt Q01201;Q00653 120-401;4-332)
- Sequence 1: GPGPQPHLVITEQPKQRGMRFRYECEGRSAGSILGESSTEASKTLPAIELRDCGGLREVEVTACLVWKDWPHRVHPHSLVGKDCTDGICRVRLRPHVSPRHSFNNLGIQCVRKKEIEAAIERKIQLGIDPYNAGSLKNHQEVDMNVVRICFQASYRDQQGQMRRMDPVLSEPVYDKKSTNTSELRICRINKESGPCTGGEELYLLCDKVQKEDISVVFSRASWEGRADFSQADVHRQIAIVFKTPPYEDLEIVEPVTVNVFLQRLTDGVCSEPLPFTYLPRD
- Sequence 2: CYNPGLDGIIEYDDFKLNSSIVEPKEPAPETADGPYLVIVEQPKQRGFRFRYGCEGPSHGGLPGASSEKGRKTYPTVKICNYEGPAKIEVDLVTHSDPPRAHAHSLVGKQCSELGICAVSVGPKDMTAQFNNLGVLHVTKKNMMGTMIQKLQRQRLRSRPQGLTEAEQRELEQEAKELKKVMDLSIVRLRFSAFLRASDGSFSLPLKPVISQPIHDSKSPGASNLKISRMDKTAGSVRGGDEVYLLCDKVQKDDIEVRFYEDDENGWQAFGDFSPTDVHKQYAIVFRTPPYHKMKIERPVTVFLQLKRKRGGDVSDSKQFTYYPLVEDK
- ASSAY PROTOCOL: protein binding microarray; high values mean tight binding
- RECORDED CONDITIONS: dsDNA, one strand shown
So I've got a bunch of sequences here, and I need their binding signal values.
Respond with the bare value in z-score.

Request: Could you please provide reported binding signal for CAGAATACCCT ? Thanks!
Result: 0.882

Request: Retrieve binding signal measured for CAAAATGCCCT and print it.
Result: -0.38

Request: Please give measured binding signal of the following entry: CAAGTAATCCC
Result: -0.123

Request: Output measured binding signal for this item: GAGTAGTCCCT
Result: 1.06

Request: Tell me measured binding signal for GAGAAACCCCC please.
Result: 2.04

Request: Please report the measured binding signal for CAAGACGCCCT
Result: -0.904

Request: Look up and report measured binding signal for this entry: GGAGAAACCCT
Result: 0.176

Request: Indicate the recorded binding signal value for this sequence: CAAAGTTTCCT
Result: -0.489

Request: Assign binding signal to the following record: AGATATCTCCT
Result: -1.06

Request: Provide measured binding signal value, entry: CAATGACCCCC
Result: 0.286

====

- TGT: RELB subunit;p50 subunit (Homo sapiens;Homo sapiens, UniProt Q01201;P19838 120-401;7-356)
- ASSAY PROTOCOL: protein binding microarray; high values mean tight binding
- RECORDED CONDITIONS: dsDNA, one strand shown
Outcome label depends on binding signal relative to 0.2 z-score: at/above gives YES, below gives NO.

Request: Is the recorded value of binding signal equal to or greater than 0.2 z-score for this sequence? CAGAAGTCCCT
Result: YES

Request: Would you say CGAGTGGTCCC shows binding signal at minimum 0.2 z-score?
Result: NO

Request: # bool: binding signal of GAGAATGTCCT >= 0.2 z-score
Result: NO

Request: Confirm if binding signal reported for the sequence GGAATCGTCCC is 0.2 z-score or above.
Result: YES

Request: Hello, I need to know if AGAATGCTCCC has measured binding signal not below 0.2 z-score. Thanks!
Result: NO

Request: Confirm if binding signal reported for the sequence CGGGGTCTCCT is 0.2 z-score or above.
Result: NO

Request: Determine whether measured binding signal meets or exceeds 0.2 z-score for CAATTTATCCT
Result: NO

Request: State whether the measured binding signal reaches 0.2 z-score, counting equality as reaching it, for AAAGAATTCCC
Result: YES

Request: Exam item: decide whether the reported binding signal for AAAAGCACCCC is at least 0.2 z-score.
Result: YES

Request: Please indicate if the recorded binding signal for CGGGTGCCCCC meets or exceeds 0.2 z-score.
Result: YES

Request: Check the entry AGATTGGTCCT : does binding signal equal or exceed 0.2 z-score?
Result: NO

Request: Identify whether the reported binding signal of the following sequence is 0.2 z-score or greater: GGAAGCTTCCT
Result: NO

Request: # check: binding signal of CAATATACCCC is greater than or equal to 0.2 z-score
Result: YES

Request: Would you say GAGAACTTCCT shows binding signal at minimum 0.2 z-score?
Result: NO

Request: hey, is binding signal for this one >= 0.2 z-score? GGAGGCGCCCC
Result: NO

Request: For this sequence, is measured binding signal 0.2 z-score or higher? GGGATGGCCCC
Result: YES

Request: API: above_or_equal(metric=binding signal, cutoff=0.2 z-score) for item CAAGTCACCCC
Result: NO

Request: Kindly determine if binding signal recorded for AGATGAATCCT is above or exactly 0.2 z-score.
Result: NO

Request: hey, is binding signal for this one >= 0.2 z-score? AAGGGTGCCCT
Result: NO

Request: State whether the measured binding signal reaches 0.2 z-score, counting equality as reaching it, for GGATACTTCCT
Result: NO

Request: Please indicate if the recorded binding signal for AGAGTGTCCCT meets or exceeds 0.2 z-score.
Result: YES

Request: Given the entry CGATATTTCCT , answer whether its binding signal meets or surpasses 0.2 z-score.
Result: NO

Request: Could you verify whether the entry CGAGTCCCCCT shows binding signal of no less than 0.2 z-score?
Result: YES

Request: Quick check: does GAAAACCCCCT have binding signal greater than or equal to 0.2 z-score?
Result: YES

Request: Kindly determine if binding signal recorded for CAAAAGTTCCC is above or exactly 0.2 z-score.
Result: YES

Request: In plain terms: is recorded binding signal at least 0.2 z-score for CGAGTAACCCC ?
Result: NO

Request: API: above_or_equal(metric=binding signal, cutoff=0.2 z-score) for item AAGTAGACCCT
Result: NO

Request: Given CGGGAGATCCT , state whether its binding signal is at least 0.2 z-score.
Result: NO

Request: Check the entry GAGGGCCTCCT : does binding signal equal or exceed 0.2 z-score?
Result: NO

Request: binding signal >= 0.2 z-score for CAATATTTCCC ?
Result: YES

Request: Does AGGGAGTTCCT have a reported binding signal of at least 0.2 z-score?
Result: YES

Request: Could you please find out whether GAAATGACCCT has binding signal that meets 0.2 z-score or exceeds it?
Result: NO

Request: Hello, I need to know if GAGAGGACCCC has measured binding signal not below 0.2 z-score. Thanks!
Result: NO

Request: Threshold query (binding signal >= 0.2 z-score) on CAAGAGTCCCC
Result: YES

Request: Decide: is the reported value of binding signal for CAGTGGCTCCC equal to or greater than 0.2 z-score?
Result: NO

Request: Given the entry CGATGGATCCT , answer whether its binding signal meets or surpasses 0.2 z-score.
Result: NO

Request: Identify whether the reported binding signal of the following sequence is 0.2 z-score or greater: CAAAGTACCCC
Result: YES

Request: Evaluate AAAGACGCCCC : binding signal at minimum 0.2 z-score?
Result: YES

Request: For this sequence, is measured binding signal 0.2 z-score or higher? CGAGACGCCCC
Result: YES

Request: # bool: binding signal of CAAGAACCCCC >= 0.2 z-score
Result: YES
